- Target Desc: T1, full-length recombinant human PAD4 (human, UniProt Q9UM07 1-663)
- T1 construct: Full-length recombinant; also called peptidylarginine deiminase 4
- T1 sequence (Q9UM07 whole entry): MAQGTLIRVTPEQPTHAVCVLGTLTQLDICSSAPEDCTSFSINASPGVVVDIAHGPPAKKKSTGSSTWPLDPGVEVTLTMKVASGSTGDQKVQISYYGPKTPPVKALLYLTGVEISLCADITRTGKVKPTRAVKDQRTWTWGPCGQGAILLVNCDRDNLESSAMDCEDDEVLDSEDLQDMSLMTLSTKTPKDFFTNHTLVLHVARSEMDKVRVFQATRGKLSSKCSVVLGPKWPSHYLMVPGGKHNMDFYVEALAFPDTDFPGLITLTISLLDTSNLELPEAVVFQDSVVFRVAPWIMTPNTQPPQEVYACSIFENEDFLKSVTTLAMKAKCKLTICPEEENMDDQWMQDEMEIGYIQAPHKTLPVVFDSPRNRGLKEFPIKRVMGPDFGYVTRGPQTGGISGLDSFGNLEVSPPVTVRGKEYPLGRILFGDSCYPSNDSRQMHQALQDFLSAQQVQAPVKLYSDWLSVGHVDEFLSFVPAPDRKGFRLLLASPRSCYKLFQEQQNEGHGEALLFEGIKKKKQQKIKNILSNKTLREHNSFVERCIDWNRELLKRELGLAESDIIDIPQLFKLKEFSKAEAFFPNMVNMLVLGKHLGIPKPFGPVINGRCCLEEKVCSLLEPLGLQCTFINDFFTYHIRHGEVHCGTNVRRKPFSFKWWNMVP
- Assay Comment: SPR (Biacore T200), antibody captured, human PAD4 analyte
- Procedure: Biacore (GE Healthcare, Biacore T200) was carried out to evaluate the affinity of A11 etc., toward human PAD4. A Mouse Antibody Capture kit (GE Healthcare, BR-1008-38) was used for the affinity assay. Specifically, in accordance with the standard protocol provided by the manufacture, NHS/EDC was used and an amine coupling method, in which a free carboxyl group is fixed on a surface of a CM5 chip, was used to immobilize a rabbit anti-mouse polyclonal antibody on the surface of a CM5 chip. […]
Endpoint Label: pKd
The value called pKd is obtained by taking minus log10 of the concentration in mol/L.

Given the entry A11 (antibody, V domains shown, Chicken variable regions in a mouse chimeric antibody (IgG1); also called anti-PAD4 antibody A11) VH: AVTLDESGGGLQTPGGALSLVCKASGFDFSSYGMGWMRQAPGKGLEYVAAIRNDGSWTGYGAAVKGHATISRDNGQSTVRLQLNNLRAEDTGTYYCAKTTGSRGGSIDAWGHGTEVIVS VL: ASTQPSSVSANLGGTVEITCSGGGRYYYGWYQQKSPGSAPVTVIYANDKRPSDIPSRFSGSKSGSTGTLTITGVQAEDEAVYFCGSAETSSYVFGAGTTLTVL , report its measured pKd. 8.36

Lookup E9 (antibody, V domains shown, Chicken variable regions in a mouse chimeric antibody (IgG1); also called anti-PAD4 antibody E9) VH: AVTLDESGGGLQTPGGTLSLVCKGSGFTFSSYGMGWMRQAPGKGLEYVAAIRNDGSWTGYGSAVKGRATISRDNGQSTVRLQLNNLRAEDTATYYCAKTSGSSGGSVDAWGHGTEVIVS VL: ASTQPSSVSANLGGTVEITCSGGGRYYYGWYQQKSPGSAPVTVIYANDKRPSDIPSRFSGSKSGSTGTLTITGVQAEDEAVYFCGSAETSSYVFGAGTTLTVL 8.26

Please give the result for G9 (antibody, V domains shown, Chicken variable regions in a mouse chimeric antibody (IgG1); also called anti-PAD4 antibody G9) VH: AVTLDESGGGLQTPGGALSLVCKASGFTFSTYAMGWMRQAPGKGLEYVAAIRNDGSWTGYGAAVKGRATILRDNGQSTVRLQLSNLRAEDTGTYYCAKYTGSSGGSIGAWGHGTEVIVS VL: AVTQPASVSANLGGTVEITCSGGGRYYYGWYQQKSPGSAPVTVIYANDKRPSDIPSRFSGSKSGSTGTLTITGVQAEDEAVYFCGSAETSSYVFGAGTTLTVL too. 8.50
